molecular target: 3',5'-cyclic-AMP phosphodiesterase 4A (Homo sapiens, UniProt P27815); assay: In vitro inhibitory activity against Phosphodiesterase 4A (PDE4)
Sequence (P27815 whole entry): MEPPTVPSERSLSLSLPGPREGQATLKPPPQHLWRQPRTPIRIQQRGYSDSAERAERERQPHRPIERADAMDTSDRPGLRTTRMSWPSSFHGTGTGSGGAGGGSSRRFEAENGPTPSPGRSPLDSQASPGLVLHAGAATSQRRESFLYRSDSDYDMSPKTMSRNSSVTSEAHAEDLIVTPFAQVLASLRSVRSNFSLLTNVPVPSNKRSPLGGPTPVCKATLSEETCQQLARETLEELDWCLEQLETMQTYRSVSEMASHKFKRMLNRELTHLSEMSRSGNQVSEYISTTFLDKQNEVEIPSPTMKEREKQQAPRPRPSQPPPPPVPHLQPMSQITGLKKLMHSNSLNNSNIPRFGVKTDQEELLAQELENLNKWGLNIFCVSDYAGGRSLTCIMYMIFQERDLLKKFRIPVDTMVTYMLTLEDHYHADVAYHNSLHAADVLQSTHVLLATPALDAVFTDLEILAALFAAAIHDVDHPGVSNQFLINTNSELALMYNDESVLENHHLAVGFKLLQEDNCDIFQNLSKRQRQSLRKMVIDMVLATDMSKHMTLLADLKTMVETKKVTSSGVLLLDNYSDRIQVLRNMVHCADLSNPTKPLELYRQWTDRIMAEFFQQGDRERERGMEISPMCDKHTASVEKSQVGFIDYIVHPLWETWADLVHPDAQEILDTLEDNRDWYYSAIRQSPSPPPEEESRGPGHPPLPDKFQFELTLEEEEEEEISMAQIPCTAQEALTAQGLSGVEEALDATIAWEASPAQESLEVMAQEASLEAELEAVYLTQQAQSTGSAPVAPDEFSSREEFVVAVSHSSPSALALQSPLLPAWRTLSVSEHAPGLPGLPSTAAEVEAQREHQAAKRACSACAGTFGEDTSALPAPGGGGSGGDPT
pIC50: −log10 of the molar value.
readout_label: pIC50

Example cases with answers are listed next.
[O-][n+]1ccc(CC(c2ccc(C(O)(c3ccccc3)C(F)(F)F)nc2)c2ccc(OC(F)F)c(OC(F)F)c2)cc1 (configuration not stated) | 8.62
CC(O)(c1ccccc1)c1ccc(C(Cc2cc[n+]([O-])cc2)c2ccc(OC(F)F)c(OC(F)F)c2)cn1 (single isomer, unassigned; diastereomer 1) | 8.70
CCCCC(C)(O)c1ccc(C(Cc2cc[n+]([O-])cc2)c2ccc(OC(F)F)c(OC(F)F)c2)cn1 (configuration not stated) | 8.22
CC(O)(c1ccccc1)c1ccc(C(Cc2cc[n+]([O-])cc2)c2ccc(OC(F)F)c(OC(F)F)c2)cn1 (single isomer, unassigned; diastereomer 2) | 9.00
CC(C)C(O)(c1ccccc1)c1ccc(C(Cc2cc[n+]([O-])cc2)c2ccc(OC(F)F)c(OC(F)F)c2)cn1 (configuration not stated) | 9.10

[a] CC(O)(c1ccccc1)c1ccc(C(Cc2cc[n+]([O-])cc2)c2ccc(OC(F)F)c(OC(F)F)c2)cn1 (racemic)
[b] CC(C)(O)c1ccc(C(Cc2cc[n+]([O-])cc2)c2ccc(OC(F)F)c(OC(F)F)c2)cn1 (configuration not stated)
Sorting ascending by pIC50, which comes first: a or b ? Identify your selection by its label. b
(b: 7.40, a: 9.22)

---

target: 3',5'-cyclic-AMP phosphodiesterase 4A (Homo sapiens, UniProt P27815); assay: In vitro inhibitory activity against Phosphodiesterase 4A (PDE4)
readout_label: IC50 (nM)

CC(O)(c1ccc(C(Cc2cc[n+]([O-])cc2)c2ccc(OC(F)F)c(OC(F)F)c2)cn1)c1nccs1 (stereo unspecified) | 6

[1] [O-][n+]1ccc(CC(c2ccc(Cc3ccccc3)nc2)c2ccc(OC(F)F)c(OC(F)F)c2)cc1 (stereo unspecified)
[2] [O-][n+]1ccc(CC(c2ccc(C(O)(c3ccccc3)c3ccccc3)nc2)c2ccc(OC(F)F)c(OC(F)F)c2)cc1 (stereo unspecified)
[3] CC(=O)c1ccc(C(Cc2cc[n+]([O-])cc2)c2ccc(OC(F)F)c(OC(F)F)c2)cn1 (stereo unspecified)
[4] CC(O)(c1ccccc1)c1ccc(C(Cc2cc[n+]([O-])cc2)c2ccc(OC(F)F)c(OC(F)F)c2)cn1 (mixture of isomers)
[5] CC(O)(c1ccc(C(Cc2cc[n+]([O-])cc2)c2ccc(OC(F)F)c(OC(F)F)c2)cn1)C1CCCCC1 (stereo unspecified)
Task field, ranking: reported IC50, descending order. I would appreciate it if you listed the labels in the requested order. 3, 4, 1, 5, 2
(3: 102 nM, 4: 48 nM, 1: 3 nM, 5: 1.2 nM, 2: 0.8 nM)

---

experiment: Half life period was determined in squirrel monkey after iv administration at a dose of 5 mg/kg; assay type: ADME, organism-based; set-up: dose 5 mg/kg, route intravenous; settings: in vivo
readout_label: half-life (h)
Response body: numeric value in h, unit text excluded.

I have this molecule here, CC(O)(c1ccccc1)c1ccc(C(Cc2cc[n+]([O-])cc2)c2ccc(OC(F)F)c(OC(F)F)c2)cn1 (single isomer, unassigned; diastereomer 1) , and I need its recorded half-life. 2.2

---

test: Oral bioavailability in rat; type: ADME, organism-based; settings: in vivo
readout_label: bioavailability (%)
// note: answer is a bare numeric in %

Please give the measured bioavailability for this compound: CC(O)(c1ccccc1)c1ccc(C(Cc2cc[n+]([O-])cc2)c2ccc(OC(F)F)c(OC(F)F)c2)cn1 (single isomer, unassigned; diastereomer 1) 57
